Where these numbers come from: ChEMBL document CHEMBL6127139

Assay: Selectivity index, ratio of IC50 for inhibition of recombinant PI3Kbeta (unknown origin) using PIP2:3PS as substrate to IC50 for inhibition of recombinant PI3Kdelta (unknown origin) using PIP2:3PS as substrate
EXPERIMENTAL_ENDPOINT: Ratio IC50

Use these answered entries as a reference point.
COc1ncc(-c2ccc3ncnc(N[C@H]4CCN(C(=O)C5CCOCC5)C4)c3c2)cc1C(=O)Oc1ccc(F)cc1    13
COc1ncc(-c2ccc3ncnc(N[C@H]4CCN(C(=O)C5CCOCC5)C4)c3c2)cc1C(=O)Oc1ccccc1    292
COc1ncc(-c2ccc3ncnc(N[C@H]4CCN(C(=O)C5CCOCC5)C4)c3c2)cc1C#N    97

Exercise: So what's the measured Ratio IC50 for this one? `COc1ncc(-c2ccc3ncnc(N[C@H]4CCN(C(=O)C5CCOCC5)C4)c3n2)cc1C(=O)Oc1ccccc1`
Solution: 753
